Test Target: Rat M4 (Rattus norvegicus, UniProt P08485)
Construct: expressed in transfected cells; host or cells: CHO-K1 (ATCC), stably expressing M4 and Gqi5
Sequence (P08485 1-478): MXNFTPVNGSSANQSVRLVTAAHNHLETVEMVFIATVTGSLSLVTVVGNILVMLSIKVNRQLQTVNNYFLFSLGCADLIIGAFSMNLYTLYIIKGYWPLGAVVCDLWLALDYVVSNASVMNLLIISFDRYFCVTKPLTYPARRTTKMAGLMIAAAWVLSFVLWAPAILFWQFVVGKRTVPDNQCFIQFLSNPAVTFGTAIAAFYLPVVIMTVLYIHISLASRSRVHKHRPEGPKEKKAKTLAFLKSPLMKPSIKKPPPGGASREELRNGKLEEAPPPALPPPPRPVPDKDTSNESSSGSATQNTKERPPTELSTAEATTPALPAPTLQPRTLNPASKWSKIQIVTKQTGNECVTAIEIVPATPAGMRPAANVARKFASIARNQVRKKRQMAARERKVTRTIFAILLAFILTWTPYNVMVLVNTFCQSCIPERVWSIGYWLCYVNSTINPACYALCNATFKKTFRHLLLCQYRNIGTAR
Assay Comment: mAChR M4 cell-based functional calcium flux assay (rat M4/Gqi5/CHO cells)
Run Conditions: decrease of the response to an EC80 concentration of acetylcholine
Method: Human, rat, or mouse M4. cDNA, along with the chimeric G protein Gqi5, were transfected into Chinese hamster ovary (CHO-K1) cells purchased from the American Type Culture Collection using Lipofectamine2000. […] Calcium flux was measured using the Functional Drug Screening System (FDSS) 6000 or 7000 (Hamamatsu Corporation, Tokyo, Japan) as an increase in the fluorescent static ratio. […] Agonist activity was analyzed as a concentration-dependent increase in calcium mobilization upon compound addition. […]
pIC50: −log10 of the molar value.
Value Kind: pIC50

q: Would you kindly share the measured pIC50 for C1=CC2CC1CC2CN1CCC2(CC1)CC2CNc1ccc(N2CCOCC2)nn1 (centres unmarked) ?
a: 7.32

1: CCCC(C)CN1CCC2(CC1)CC2CNc1ccc(-c2cn(C)nc2C)nn1 (centres unmarked)
2: Fc1ccc(Cl)c(-c2ccc(NC[C@@H]3CC34CCN(CC3CCOCC3)CC4)nn2)c1
3: Fc1ccc(Cl)c(-c2ccc(NCC3CC34CCN(CC3CC5C=CC3C5)CC4)nc2)c1 (centres unmarked)
4: CC(C)(C)CCN1CCC2(CC1)CC2CNc1ccc(-c2ccccc2)nn1 (centres unmarked)
q: rank_up(items): orders items by reported pIC50 in ascending numerical order. # answer = labels listed in requested order
a: 3, 1, 4, 2

====

Test Target: UniProt:P08173
Sequence (P08173 1-479): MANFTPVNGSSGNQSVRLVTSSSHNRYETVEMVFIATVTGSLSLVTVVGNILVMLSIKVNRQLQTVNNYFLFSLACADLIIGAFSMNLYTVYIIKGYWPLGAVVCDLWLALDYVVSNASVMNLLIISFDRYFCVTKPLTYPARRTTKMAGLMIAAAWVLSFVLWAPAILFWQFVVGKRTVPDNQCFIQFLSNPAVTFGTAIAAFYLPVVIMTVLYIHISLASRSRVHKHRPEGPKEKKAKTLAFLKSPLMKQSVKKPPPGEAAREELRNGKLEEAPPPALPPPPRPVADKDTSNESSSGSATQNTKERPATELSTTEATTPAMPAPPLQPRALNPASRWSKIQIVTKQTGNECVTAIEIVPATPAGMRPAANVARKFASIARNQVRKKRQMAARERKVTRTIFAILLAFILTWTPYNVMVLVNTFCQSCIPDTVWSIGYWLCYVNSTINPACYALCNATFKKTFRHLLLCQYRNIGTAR
Assay Comment: mAChR M4 cell-based functional calcium flux assay (human M4/Gqi5/CHO cells)
Run Conditions: decrease of the response to an EC80 concentration of acetylcholine
Value Kind: IC50 (µM)

I: Fc1ccc(CN2CCC3(CC2)CC3CNc2ccc(-c3cc(F)ccc3Cl)nn2)cc1 (stereo not drawn)
II: Cc1ccc(F)cc1-c1ccc(NCC2CC23CCN(CCC(C)(C)C)CC3)nn1 (stereo not drawn)
q: Which is greater in IC50, the first item I or the second item II ? Pick one; state its label.
a: I
(I: 0.0882 µM, II: 0.0172 µM)

====

Test Target: Human M4 (Homo sapiens)
Assay Comment: mAChR M4 cell-based functional calcium flux assay (human M4/Gqi5/CHO cells)
Run Conditions: decrease of the response to an EC80 concentration of acetylcholine
Value Kind: IC50 (nM)

q: Suppose we examine the molecule Cc1noc(C)c1-c1ccc(NCC2CC23CCN(CCC(C)(C)C)CC3)nn1 (centres unmarked) ; what IC50 value has been reported?
a: 5.29

q: Record request: IC50 value, item CC(CN1CCC2(CC1)CC2C(=O)Nc1ccc(-c2cc(F)ccc2Cl)nn1)C(C)(C)C (centres unmarked)
a: 5060

q: Field request: IC50 | item: N#Cc1ccccc1CN1CCC2(CC1)CC2CNc1ccc(-c2cc(F)ccc2Cl)nn1 (centres unmarked)
a: 524

q: // returns reported IC50 for input CC(C)(C)CCN1CCC2(CC1)CC2CNc1ccc(-c2cnccc2C(F)(F)F)nn1 (centres unmarked)
a: 12.8

q: Consider the molecule Fc1ccc(Cl)c(-c2ccc(NC[C@@H]3CC34CCN(CC3CCCCCC3)CC4)nn2)c1 and give its measured IC50.
a: 50.6

P: Fc1ccc(Cl)c(-c2ccc(NCC3CC34CCN(CC3CCCCC3)CC4)nn2)c1 (centres unmarked)
Q: CC(CN1CCC2(CC1)CC2CNc1ccc(-c2cc(F)ccc2Cl)nn1)C(C)(C)C (centres unmarked)
q: Of P and Q , which shows the smaller IC50 value? Kindly state the label of the option you pick.
a: P
(P: 17.7 nM, Q: 39.3 nM)

1: Cc1nn(C)cc1-c1ccc(NCC2CC23CCN(CC24CC5CC(CC(C5)C2)C4)CC3)nn1 (centres unmarked)
2: Cn1nc(C(F)(F)F)cc1-c1ccc(NCC2CC23CCN(CCC(C)(C)C)CC3)nn1 (centres unmarked)
q: Would you let me know which has the greater IC50 value, 1 or 2 ? Label of pick, please.
a: 1

A: Cc1cnn(C)c1-c1ccc(N(C)CC2CC23CCN(CCC(C)(C)C)CC3)nn1 (centres unmarked)
B: Fc1ccc(Cl)c(-c2ccc(NC[C@@H]3CC34CCN(CC3CC5C=CC3C5)CC4)nn2)c1 (some centres unmarked)
C: Cc1nn(C)cc1-c1cnc(NCC2CC23CCN(CC2CC4C=CC2C4)CC3)cn1 (centres unmarked)
D: Cc1nn(C)cc1-c1ccc(NCC2CC23CCN(CCC(C)(C)C)CC3)nn1 (centres unmarked)
q: Sort entries by IC50 from minimum to maximum value. List each label, following the requested order.
a: D, B, C, A
(D: 2.4 nM, B: 9.89 nM, C: 30.1 nM, A: 99.6 nM)

====

Test Target: Human M4 (Homo sapiens)
Construct: expressed in transfected cells; host or cells: CHO-K1 (ATCC), stably expressing M4 and Gqi5
Sequence (P08173 1-479): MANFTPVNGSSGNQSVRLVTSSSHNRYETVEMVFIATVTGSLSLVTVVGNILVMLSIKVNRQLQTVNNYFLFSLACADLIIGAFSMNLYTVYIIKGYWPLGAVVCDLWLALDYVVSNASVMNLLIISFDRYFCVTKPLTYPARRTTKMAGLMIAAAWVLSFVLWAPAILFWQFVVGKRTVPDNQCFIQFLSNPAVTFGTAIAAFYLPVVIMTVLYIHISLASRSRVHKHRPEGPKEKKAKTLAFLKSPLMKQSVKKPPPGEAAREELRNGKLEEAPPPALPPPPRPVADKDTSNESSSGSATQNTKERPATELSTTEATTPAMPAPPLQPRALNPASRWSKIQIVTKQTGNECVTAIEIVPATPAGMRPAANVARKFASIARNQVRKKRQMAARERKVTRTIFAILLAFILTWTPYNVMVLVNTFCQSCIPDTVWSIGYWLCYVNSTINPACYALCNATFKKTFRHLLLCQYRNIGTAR
Assay Comment: mAChR M4 cell-based functional calcium flux assay (human M4/Gqi5/CHO cells)
Run Conditions: % ACh maximum at 30 μM
Value Kind: Emin (human M4) (%)

Known Emin (human M4) results, listed for orientation:
q: Emin (human M4) for Fc1ccc(Cl)c(-c2ccc(NC[C@@H]3CC34CCN(CC3CC5C=CC3C5)CC4)nn2)c1 (stereo partly drawn) ?
a: 2

q: Recorded Emin (human M4) for Cc1ccsc1-c1ccc(NCC2CC23CCN(CCC(C)(C)C)CC3)nn1 (stereo not drawn) , please?
a: 2.88

q: Need Emin (human M4) of Cc1nn(C)cc1-c1cnc(NCC2CC23CCN(CCC(C)(C)C)CC3)cn1 (stereo not drawn) , thanks.
a: 2.71

q: For the compound CC(=O)Nc1ccc(-c2ccc(NC[C@@H]3CC34CCN(CCC(C)(C)C)CC4)nn2)cc1 , what Emin (human M4) is on record?
a: 6

q: Consider the compound shown here: CC(=O)Nc1ccc(-c2ccc(NC[C@@H]3CC34CCN(CC3CCOCC3)CC4)nn2)cc1 What is its recorded Emin (human M4)?
a: 3

a: Cn1nc(C(F)(F)F)cc1-c1ccc(NCC2CC23CCN(CCC(C)(C)C)CC3)nn1 (stereo not drawn)
b: Cc1nn(C)cc1-c1nnc(NCC2CC23CCN(CCC(C)(C)C)CC3)c2ccccc12 (stereo not drawn)
q: Of a and b , which one carries the higher reported Emin (human M4)? Respond with the label that goes with your answer.
a: b
